Assay Readout: melting point (°C)
Output spec: scalar in °C, unitless text.

{"columns": ["Molecule", "Readout Units", "melting point"],
 "data": [
  ["O=C(N[C@@H]1CCC[C@H](Nc2nc(-c3c[nH]c4c(F)cc(Cl)cc34)ncc2F)C1)c1ncccc1O [Compound 34]", "°C", 242.2],
  ["O=C(N[C@@H]1CCC[C@H](Nc2nc(-c3c[nH]c4c(F)cc(Cl)cc34)ncc2F)C1)c1cnccn1 [Compound 33]", "°C", 249.9]
]}

Next, consider the following molecule.
If you can, please state the reported melting point value of Cn1cc(Br)nc1C(=O)N[C@@H]1CCC[C@H](Nc2nc(-c3c[nH]c4c(F)cc(Cl)cc34)ncc2F)C1 [Compound 57] .
214.9
